- Experiment: Non-clinical toxicology, repeated dose toxicity study in rat
- Format: in vivo
- Assay Context: rat, plasma; female rats, repeated dose toxicity study; read-out: Cmax (systemic exposure in toxicity study)
Measured Property: Cmax (ng/mL)
Your answer should be a plain number; it is taken to be in ng/mL.

Provide measured Cmax value, entry: Cl.O=S(=O)(c1ccccc1)c1ccc2c(c1)OCCN2C1CCNCC1F (single isomer, unassigned; peak iii) 2420

Give Cmax for O=S(=O)(c1ccccc1)c1ccc2c(c1)OCCN2C1CCNCC1 [Comparator Example, reference compound] 280

----------
- Experiment: Rodent pharmacokinetic study
- Assay type: in vivo, male Wistar rats
- Assay Context: male, Wistar, plasma; rat, oral (gavage) 3 mg/kg vs intravenous 1 mg/kg; read-out: F (Bioavailability)
Measured Property: bioavailability (%)
Numeric answer only, unit % assumed.

Please report the measured bioavailability for Cl.O=S(=O)(c1ccccc1)c1ccc2c(c1)OCCN2C1CCNCC1F (single isomer, unassigned; peak iii) [Example 1] 81

----------
- Experiment: Rodent pharmacokinetic study
- Assay type: in vivo, male Wistar rats
- Assay Context: male, Wistar, plasma; rat, intravenous (bolus), 1 mg/kg
Measured Property: clearance (mL/min/kg)
Field format: number, assumed mL/min/kg, no unit text.

Give the measured clearance for Cl.O=S(=O)(c1ccccc1)c1ccc2c(c1)OCCN2C1CCNCC1F (single isomer, unassigned; peak iii) 40

The reported numbers originate from patent US10973831B2.
